- Assay system: KDM7B (PHD-JmjC) (Homo sapiens, UniProt Q9UPP1)
- Construct: A dual-domain construct of KDM7A/B(PHD-JmjC), consisting of a JmjC domain in addition to the PHD-finger; His; made in house
- Sequence (Q9UPP1 37-483 limits assumed): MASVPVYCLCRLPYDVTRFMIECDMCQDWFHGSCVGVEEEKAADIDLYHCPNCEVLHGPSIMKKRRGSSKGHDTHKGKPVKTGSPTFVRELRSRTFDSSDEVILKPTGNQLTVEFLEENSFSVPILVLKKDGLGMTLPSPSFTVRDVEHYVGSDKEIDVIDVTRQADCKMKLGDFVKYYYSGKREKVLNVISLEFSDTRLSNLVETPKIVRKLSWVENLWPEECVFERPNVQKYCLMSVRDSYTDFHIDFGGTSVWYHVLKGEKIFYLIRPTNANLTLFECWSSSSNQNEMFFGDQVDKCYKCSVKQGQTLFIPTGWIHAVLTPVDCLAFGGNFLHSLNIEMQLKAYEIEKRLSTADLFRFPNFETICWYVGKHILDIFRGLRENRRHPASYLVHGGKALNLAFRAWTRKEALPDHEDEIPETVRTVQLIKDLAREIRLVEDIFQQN
- Assay text: AlphaScreen displacement of H3K4me3-Bn from His-KDM7B(PHD-JmjC)
- Assay type: binding
- Experimental conditions: AlphaScreen displacement of H3K4me3-Bn; n = 3; NI = No inhibition seen at 100 μM; read-out: IC50 KDM7B (PHD-JmjC) (Displacement)
Readout: IC50 (µM)
Write the number in µM without appending the unit.

Record smiles	IC50, µM
CCCCc1oc2ccccc2c1C(=O)c1ccc(OCCC[N+](C)(C)C)cc1.[I-]	120

Read the next record carefully.
Supply recorded IC50 for `Cc1oc2ccccc2c1C(=O)c1ccc(OCCC[N+](C)(C)C)cc1.[I-]` here.
126

* * *

- Assay system: KDM5A_c1 (M1-L801) (Homo sapiens, UniProt P29375)
- Construct: made in house
- Sequence (P29375 1-801): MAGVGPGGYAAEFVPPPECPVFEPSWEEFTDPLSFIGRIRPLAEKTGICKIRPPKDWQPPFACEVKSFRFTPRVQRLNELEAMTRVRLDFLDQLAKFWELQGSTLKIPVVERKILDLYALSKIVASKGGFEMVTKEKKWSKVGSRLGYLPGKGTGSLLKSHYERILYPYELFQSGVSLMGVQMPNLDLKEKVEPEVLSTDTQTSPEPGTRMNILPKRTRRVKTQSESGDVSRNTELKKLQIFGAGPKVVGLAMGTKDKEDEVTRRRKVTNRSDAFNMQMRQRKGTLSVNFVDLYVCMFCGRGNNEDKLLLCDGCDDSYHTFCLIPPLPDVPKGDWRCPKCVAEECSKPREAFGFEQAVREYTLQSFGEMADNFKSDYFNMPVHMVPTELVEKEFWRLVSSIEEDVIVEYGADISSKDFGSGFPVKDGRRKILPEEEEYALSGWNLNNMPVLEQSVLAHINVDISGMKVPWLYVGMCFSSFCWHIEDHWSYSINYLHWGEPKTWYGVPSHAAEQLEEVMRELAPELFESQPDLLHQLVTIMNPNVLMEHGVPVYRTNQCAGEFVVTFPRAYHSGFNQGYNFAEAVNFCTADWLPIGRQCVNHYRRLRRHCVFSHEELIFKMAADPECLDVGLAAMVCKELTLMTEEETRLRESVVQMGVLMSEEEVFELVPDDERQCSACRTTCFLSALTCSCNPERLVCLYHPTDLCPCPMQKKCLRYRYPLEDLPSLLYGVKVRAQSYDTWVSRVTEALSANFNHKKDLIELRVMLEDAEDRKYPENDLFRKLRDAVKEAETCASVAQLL
- Assay text: MALDI-TOF MS H3K4me3 demethylation assay, KDM5A_c1
- Type: biochemical
- Experimental conditions: average ± StdDev of n = 2, read-out: IC50, inhibition of H3K4me3 demethylation activity, KDM5A_c1
Readout: pIC50
Worth noting: pIC50 values are minus log10 of concentrations stated in mol/L.

Supply recorded pIC50 for `CCCCc1oc2ccccc2c1C(=O)c1ccc(OCCC[N+](C)(C)C)cc1.[I-]` here.
4.10

* * *

Reported KDM7A (PHD-JmjC) (Catalytic), inhibition of H3K9me2 demethylation by item:
- System: KDM7A (PHD-JmjC)
- Assay text: MALDI-TOF MS H3K9me2 demethylation assay, KDM7A(PHD-JmjC)
- Assay type: biochemical, human
- Experimental conditions: at 100 µM, substrate H3(1–15)K9me2
- Protocol: Final concentrations were: 1mM ascorbate, 50 µM (NH4)2Fe(II)(SO4)2 and 200 µM 2OG. The mixture was quenched using formic acid after 10 minutes (KDM7A) or 5 minutes (KDM7B).

Some solved entries appear below for comparison.
Compound	Experimental result
Cn1cc(C(=O)c2ccc(OCCC[N+](C)(C)C)cc2)c2ccccc21.[I-] [Compound 2d]	100% (100 µM)
Cc1oc2ccccc2c1C(=O)c1ccc(OCCC[N+](C)(C)C)cc1.[I-] [Compound 2b]	100% (100 µM)
CCCCc1oc2ccccc2c1C(=O)c1cc(I)c(OCC[N+](C)(C)C)c(I)c1.[I-] [WAG-003, reference compound]	17% (100 µM)
CCCCc1oc2ccccc2c1C(=O)c1ccc(OCCC[N+](C)(C)C)cc1.[I-] [Compound 2a]	100% (100 µM)
CCCCc1oc2ccccc2c1C(=O)c1cc(I)c(OCCC[N+](C)(C)C)c(I)c1.[I-] [WAG-005, reference compound]	100% (100 µM)

Read the next record carefully.
Supply recorded KDM7A (PHD-JmjC) (Catalytic), inhibition of H3K9me2 demethylation for CCCCc1oc2ccccc2c1C(=O)c1ccc(OCCCN(C)C)cc1 [Compound 1a] here.
100% (100 µM)
